Property: IC50; scope: individual binders
- target-of-assay: FGF2 (Homo sapiens, UniProt P09038 P09038:135-288)
- Sequence (P09038 135-288, one chain of several): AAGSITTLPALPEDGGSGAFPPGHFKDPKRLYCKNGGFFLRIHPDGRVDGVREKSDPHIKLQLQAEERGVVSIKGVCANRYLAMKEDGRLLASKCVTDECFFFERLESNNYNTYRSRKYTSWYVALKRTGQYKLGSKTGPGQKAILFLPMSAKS
- test-details: cell_activity; HUVEC proliferation, FGF2 0.58 nM
- condition-details: tags: Peprotech

binder | IC50, nM
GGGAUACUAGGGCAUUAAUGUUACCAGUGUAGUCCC (ssRNA, 2'-F at U8,U16,U21,U28,U30; 2'-OH at G12,G27,G29; all others 2'-OMe; PS between G27 and U28) [aptamer ID 3(31)] | 10
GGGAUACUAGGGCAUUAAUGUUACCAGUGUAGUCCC (ssRNA, 2'-OMe at G1,G2,G3,A4,A9,G10,G11,A14,A17,A18,G20,A23,C24,C25,A26; other C and U 2'-F; other purines 2'-OH) [aptamer ID 3(15)] | 14
GGAUACUAGGGCAUUAAUGUUACCAGUGUAGUCC (ssRNA, 2'-F at U7,G11,U15,U20,G26,U27,U29; 2'-OH at G28; all others 2'-OMe; 3' idT) [aptamer ID 4(2)] | 5.1
